- protocol-summary: Cytotoxicity activity against human HepG2 cells assessed by CellTiter-Glo luminescent cell viability assay.
- Format: toxicity, cell-based
- Design: assay stage confirmatory assay, source tissue liver
- test-conditions: HepG2 cells, read-out: IC50 relative
Structures can show the parent of a compound that is named as a salt. Activity calls are given as the source filed them. The rule behind the calls is not given here.
Collected CC50 values appear next to each entry.
measured-property: CC50

1) CC(C)(C)n1c(NC(=O)c2ccncc2)nc2ccccc21
15.2 µM (active)
2) c1ccc2c(c1)sc1ncnc(NC[C@H]3CN(C4CC4)CCO3)c12
11.8 µM (active)
3) CN1C[C@H](C(=O)N[C@]2(C)O[C@@]3(O)[C@@H]4CCCN4C(=O)[C@H](Cc4ccccc4)N3C2=O)C[C@@H]2c3cccc4[nH]cc(c34)C[C@H]21 [DIHYDROERGOTAMINE MESYLATE]
12.9 µM (active)
4) Brc1c(Br)c(Br)c2[nH]cnc2c1Br
7.4 µM (active)
5) O=C(NCCO)c1cccc(-c2cc(Nc3ccc(OC(F)(F)F)cc3)ncn2)c1
19.4 µM (inactive)
6) Cc1ccc(CC(=O)N2CCN(C(=O)[C@@H]3CCCCO3)CC2)cc1
0.6 µM (active)
7) CN1CCC(CNc2ccc3ncc(-c4cccc(OC(F)(F)F)c4)n3n2)CC1 [SGI-1776]
1.5 µM (active)
8) CCOc1cc(C(=O)N[C@H]2CCN(C3CCN(C)CC3)C2)ccc1C
15.9 µM (inactive)
9) O=C(c1ccncc1)N1CCC2(CC1)CC(Cc1nc(-c3ccncc3)no1)CCO2 (centres undefined)
5.2 µM (active)
10) C[C@H](O)CN1CCC(CNCc2ccc(Br)cc2)CC1
5.3 µM (active)
11) CNC(=O)c1c(F)cccc1Nc1nc(Nc2cc3c(cc2OC)CCN3C(=O)CN(C)C)nc2[nH]ccc12
3.6 µM (active)
12) COc1cc(NCc2ccc3nc(N)nc(N)c3c2C)cc(OC)c1OC [TRIMETREXATE]
1.7 µM (active)
13) O=C(/C=C/c1ccc(O)c(O)c1)OCCc1ccccc1 [CAFFEIC ACID PHENETHYL ESTER]
4.7 µM (active)
14) Cc1[nH]c2ccccc2c1CN1CCN(c2ccccn2)CC1
12.9 µM (inactive)
15) Cc1nc(NC(=O)c2ccc(C)c(Br)c2)n(C)n1
11.7 µM (active)
16) Cc1cn(CCN2CCN(c3ccccc3-c3cc(C#N)cc(C(=O)NCCCN4CCCC4)c3)CC2)c2ccccc12
1.4 µM (active)
17) NC(=O)c1cc(-c2csc(Nc3ccccc3)n2)ccc1O
14.2 µM (inactive)
18) CN(C)S(=O)(=O)c1cccc(NC(=O)c2ccc(S(=O)(=O)N(C)c3ccccc3)cc2)c1
2.6 µM (active)
19) COc1ccc(CCN2C(=O)N(C)C(=O)C23CCN(Cc2cccc(OC)c2)CC3)cc1
6.6 µM (active)
20) CC[C@H]1CN(c2ccccc2)CCN1c1ccnc(C(C)C)n1
10.7 µM (active)
21) Cc1nccn1-c1ccc(NC(=O)c2cccc(OC(C)C)n2)cn1
6.5 µM (active)
22) c1nc(N2CCN(Cc3ccc4c(c3)OCO4)CC2)c2ccsc2n1
5.1 µM (active)
23) COCCCN(C(=O)CCl)c1nc(-c2ccc(OC)cc2)cs1
1.5 µM (active)
24) CCN(CC)CCN(Cc1ccc(-c2ccc(C(F)(F)F)cc2)cc1)C(=O)Cn1c(SCc2ccc(F)cc2)nc(=O)c2c1CCC2 [DARAPLADIB]
1.5 µM (active)
25) O=C1C(=O)c2ccccc2-c2ccccc21 [9,10-PHENANTHRENEQUINONE]
1.1 µM (active)
26) CCCC[C@H](CC)CNC1CCN(C(C)C)CC1
7.8 µM (inactive)
27) CC(C)CNC(=O)COc1ccc(-c2nc(C(C)C)no2)cc1
8.1 µM (active)
28) CCS(=O)(=O)c1ncc(Cl)c(C(=O)Nc2ccccc2Cl)n1
2.5 µM (active)
29) CCOC(=O)CCNc1cc(N2CCc3ccccc3CC2)nc(-c2ccccn2)n1
7.5 µM (active)
30) CSc1cccc(NC(=O)Nc2ccc3c(c2)N(S(C)(=O)=O)CC3)c1
5.4 µM (active)
31) CN(C)c1nc(Nc2ccc(O)cc2)nc2ccccc12
9.7 µM (active)
32) CC1(C)CC(Nc2ccc(Nc3ccccc3)cc2)CC(C)(C)N1
10.9 µM (active)
33) CC1(COc2ccc3c(c2)ncn3-c2ccc3cccc(N4CCC(N)CC4)c3n2)COC1 [CRENOLANIB]
4.4 µM (active)
34) Cc1ccc(C(=O)N(CCCN)[C@@H](c2nc3cc(Cl)ccc3c(=O)n2Cc2ccccc2)C(C)C)cc1 [ISPINESIB]
5.5 µM (active)
35) Cc1csc(CCNc2cc(N3CCC[C@@H]3CO)ncn2)n1
2.4 µM (active)
36) O=C1Nc2ccccc2/C1=C1\Nc2ccccc2\C1=N/O
14.6 µM (inactive)
37) NCCCCNS(=O)(=O)c1ccc2c(Cl)cccc2c1
13 µM (active)
38) CO[C@H]1C[C@@H]2CC[C@@H](C)[C@@](O)(O2)C(=O)C(=O)N2CCCC[C@H]2C(=O)O[C@H]([C@H](C)C[C@@H]2CC[C@@H](O)[C@H](OC)C2)CC(=O)[C@H](C)/C=C(\C)[C@@H](O)[C@@H](OC)C(=O)[C@H](C)C[C@H](C)/C=C/C=C/C=C/1C [SIROLIMUS]
17.5 µM (inactive)
39) CCN(CC)C(=O)N1CC(Oc2ccc(-c3noc(C4CCOCC4)n3)cc2)C1
2.3 µM (active)
